The reported numbers originate from ChEMBL document CHEMBL3758084.

Let's go through some recorded Ki values for Cannabinoid receptor 1 (Homo sapiens) together.

Cc1c(C(=O)NC2CCN(S(=O)(=O)CC(C)C)CC2)nn(-c2ccc(Cl)cc2Cl)c1-c1ccc(Cl)cc1 :: 43.5 nM
Cc1c(C(=O)NC2CCN(C(=O)CC(C)C)CC2)nn(-c2ccc(Cl)cc2Cl)c1-c1ccc(Cl)cc1 :: 28.9 nM
Cc1c(C(=O)NC2CCN(C(=O)OC(C)C)CC2)nn(-c2ccc(Cl)cc2Cl)c1-c1ccc(Cl)cc1 :: 6.4 nM

Could you now look at the following molecule, please?
What reported Ki corresponds to `CCS(=O)(=O)N1CCC(NC(=O)c2nn(-c3ccc(Cl)cc3Cl)c(-c3ccc(Cl)cc3)c2C)CC1` on Cannabinoid receptor 1 (Homo sapiens)? 44.4 nM

====

Documented permeability across a set of molecules
test: Permeability of compound across apical to basal compartment in PBS at pH 7.4 at 10 uM after 4 hrs by PAMPA; assay type: ADME; settings: pH 7.4, 4 h
Give the value in % but do not write % after it.

Below, each entry is followed by its recorded permeability result.
Cc1c(C(=O)NC2CCN(C(=O)C(F)(F)F)CC2)nn(-c2ccc(Cl)cc2Cl)c1-c1ccc(Cl)cc1 :: 0.2
Cc1c(C(=O)NC2CCN(S(=O)(=O)CC(C)C)CC2)nn(-c2ccc(Cl)cc2Cl)c1-c1ccc(Cl)cc1 :: 0.2

Need permeability of `Cc1c(C(=O)NC2CCN(C(=O)c3ccccc3)CC2)nn(-c2ccc(Cl)cc2Cl)c1-c1ccc(Cl)cc1` , thanks. 0.2
